Tested on: Caco-2
Test: cell viability relative to DMSO; higher = less toxic
Conditions: 72 h; 10000 nM
cell viability by entry:
Answer with a number only, understood to be in %.

| SAMPLE_SMILES | ASSAYED_SYSTEM | cell viability / % |
| --- | --- | --- |
| CN(C)CCCO[C@@H]1[C@H]2OC(C)(C)O[C@H]2O[C@@H]1[C@H](O)CO | Caco-2 | 97.3 |
| CC[C@]12CCCN3CCc4c(n(c5ccccc45)C(=O)C1)[C@@H]32 | Caco-2 | 78.6 |
| Cc1cnc(-c2ccccc2C(C)C)nc1NCc1ccc(-n2ccnn2)cc1 | Caco-2 | 81 |

Problem: Name the recorded cell viability for CN(C)CCCNC(=O)c1ccc(-c2cc(O)c3ncccc3c2)cc1 .
Result: 80.6

Problem: Name the recorded cell viability for CC(C)CCC[C@@H](C)[C@H]1CC[C@H]2[C@@H]3CC=C4C[C@@H](O)CC[C@]4(C)[C@H]3CC[C@]12C .
Result: 98.9

Problem: Name the recorded cell viability for Cc1ncc(CSSCc2cnc(C)c(O)c2CO)c(CO)c1O .
Result: 92.7

Problem: Name the recorded cell viability for CC(C)(C)c1cc(C(=O)/C(C#N)=N/Nc2cccc(Cl)c2)no1 .
Result: 37

Problem: Name the recorded cell viability for CC(C)C[C@H](NC(=O)[C@H](CCc1ccccc1)NC(=O)CN1CCOCC1)C(=O)N[C@@H](Cc1ccccc1)C(=O)N[C@@H](CC(C)C)C(=O)[C@@]1(C)CO1 .
Result: 6

----------
cell viability by entry:
Test system: Caco-2
Assay: cell viability relative to DMSO; higher = less toxic
Details: 72 h; 10 nM
Answer with a number only, understood to be in %.

Reference set (2 entries):
| COMPOUND | RECORDED_ENDPOINT | READOUT_VALUE |
| --- | --- | --- |
| O=c1[nH]cnc2c1cnn2[C@@H]1O[C@H](CO)[C@@H](O)[C@H]1O [allopurinol-riboside] | cell viability | 98 |
| Cc1ccc(-c2ncc(Cl)cc2-c2ccc(S(C)(=O)=O)cc2)cn1 | cell viability | 108 |

Problem: Name the recorded cell viability for C[N+]1(C)[C@@H]2C[C@@H](OC(=O)C(O)(c3cccs3)c3cccs3)C[C@H]1[C@@H]1O[C@@H]12 .
Result: 100

Problem: Name the recorded cell viability for COc1cc2nccc(Oc3ccc(NC(=O)C4(C(=O)Nc5ccc(F)cc5)CC4)cc3)c2cc1OC [cabozantinib] .
Result: 97.4

Problem: Name the recorded cell viability for CC(=O)N[C@@H](Cc1ccc(O)cc1)C(=O)O .
Result: 92.8

Problem: Name the recorded cell viability for CCCCCOc1c(OC)ccc2cc(C(=O)NCc3ccc4c(c3)OCO4)c(=O)[nH]c12 .
Result: 91.1

Problem: Name the recorded cell viability for N[C@@H](C(=O)O)c1nn[nH]n1 (racemic) [tetrazol-5-yl-glycine-(RS)] .
Result: 95.6

Problem: Name the recorded cell viability for CCCCOC(=O)c1cc2c(cn1)[nH]c1ccccc12 .
Result: 95.5

Problem: Name the recorded cell viability for C=C1CC[C@H](O)C/C1=C/C=C1\CCC[C@]2(C)[C@@H]([C@H](C)CCCC(C)C)CC[C@@H]12 .
Result: 88.2

Problem: Name the recorded cell viability for CCCCCOC(=O)Nc1nc(=O)n([C@@H]2O[C@H](C)[C@@H](O)[C@H]2O)cc1F .
Result: 110

Problem: Name the recorded cell viability for CCCCCCCCCCCCCCCC(=O)O[C@@H]1[C@@H](O)[C@@H](O)[C@@H]([C@H](NC(=O)[C@@H]2C[C@@H](CCC)CN2C)[C@H](C)Cl)O[C@@H]1SC [clindamycin-palmitate] .
Result: 94.7

Problem: Name the recorded cell viability for Cc1cc(NC(=O)C(c2ccccc2)N2CCCc3ccccc32)no1 (stereo unspecified) .
Result: 101

Problem: Name the recorded cell viability for CC(C)[C@H](O)C(=O)N[C@@H](C)C(=O)N[C@@H]1C(=O)N(C)CCc2ccccc21 .
Result: 107

Problem: Name the recorded cell viability for Cc1nc2ccccn2c(=O)c1CCN1CCC(C(=O)c2ccc(F)cc2)CC1 .
Result: 101

Problem: Name the recorded cell viability for COc1cccc(/C=N/N=C/c2cccc(OC)c2)c1 .
Result: 106

Problem: Name the recorded cell viability for CN1C(C(=O)Nc2ccccn2)=C(O)c2sc(Cl)cc2S1(=O)=O .
Result: 95
